Values were extracted from paper PMC7600788.

// values below are reported Human RBC, concentration that caused 50% red blood cell lysis (HC50)
system: human red blood cells; test: Hemolytic assay; type: cell-based; conditions: red cells of human
No end group written: not given here.

Solved entries:
SEQ_STRING: WLRKIWWW [WW293]
OBSERVED_VALUE: 224 µM

SEQ_STRING: KIWWWWLR [WW296]
OBSERVED_VALUE: 103 µM

SEQ_STRING: WWWLRKIW [WW291]
OBSERVED_VALUE: 30 µM

SEQ_STRING: WWLRKIWW [WW292]
OBSERVED_VALUE: 175 µM

Value wanted: Human RBC, concentration that caused 50% red blood cell lysis (HC50) (human red blood cells) of entry WWWWLRKI [WW298] 52 µM

What Human RBC, concentration that caused 50% red blood cell lysis (HC50) appears in the records for this sequence with human red blood cells? LRKIWWWW [WW294] 143 µM

For the record RKIWWWWL [WW295] , what value of Human RBC, concentration that caused 50% red blood cell lysis (HC50) is listed for human red blood cells? 57 µM

----------
Entries and their THP-1, concentration that caused 50% cell death (LC50)
Tested on: PMA differentiated THP-1 cells
Assay: MTS cytotoxicity assay
Assay type: cell-based
Conditions: PMA differentiated THP-1, serum free media, one hour treatment
Protocol: Peptides were assayed for potential in vitro toxicity against human keratinocytes (HaCaT) and THP-1 cells as previously described. THP-1 monocytes were differentiated into macrophages by adding 30 ng/mL of phorbol 12-myristate 13-acetate (PMA; Sigma-Aldrich) to RPMI 1640 supplemented with 10% fetal calf serum culture (FCS) medium for 16 h. […] Absorbance readings at 492 nm were taken using a ChroMate microplate reader (GMI, Ramsey, MN, USA).
No end group written: not given here.
Output spec: scalar in µM, unitless text.

Example entries begin here.
SEQ_STRING: IWWWWLRK [WW297]
OBSERVED_VALUE: 38

SEQ_STRING: KIWWWWLR [WW296]
OBSERVED_VALUE: 35

For the next question, use this sequence.
Give the measured THP-1, concentration that caused 50% cell death (LC50) of WWWWLRKI [WW298] . 30

----------
test system: S. aureus USA300 LAC; assay type: cell-based, Staphylococcus aureus; conditions: USA300
No end group written: not given here.
MIC, +10% Human Serum overview
Kindly provide the numeric value in µM only, without the unit symbol.

The following sequences have reported results that may help.
SEQ_STRING: LRKIWWWW [WW294]
MIC, +10% Human Serum [µM]: 25
//
SEQ_STRING: WWWLRKIW [WW291]
MIC, +10% Human Serum [µM]: 25

Please look at the following sequence next.
Enter reported MIC, +10% Human Serum observed with S. aureus USA300 LAC for RKIWWWWL [WW295] 12.5

----------
system: Pig RBC; experiment: Hemolytic assay; format: cell-based
No end group written: not given here.
REPORTED_METRIC: Pig RBC, concentration that caused 50% red blood cell lysis (HC50)

SEQ_STRING: WWWWLRKI [WW298]
OBSERVED_VALUE: 37 µM
//
SEQ_STRING: WLRKIWWW [WW293]
OBSERVED_VALUE: >100 µM
//
SEQ_STRING: KIWWWWLR [WW296]
OBSERVED_VALUE: >100 µM
//
SEQ_STRING: RKIWWWWL [WW295]
OBSERVED_VALUE: >100 µM
//
SEQ_STRING: LRKIWWWW [WW294]
OBSERVED_VALUE: >100 µM

// moving on: another record for Pig RBC, concentration that caused 50% red blood cell lysis (HC50)
Can you share its Pig RBC, concentration that caused 50% red blood cell lysis (HC50)? I mean this sequence: WWLRKIWW [WW292] >100 µM

----------
tested on: monkey kidney Vero E6 cells; assay type: cell-based
No end group written: not given here.
Listed next: entries and their corresponding Vero Cells, concentration that caused 50% cell death (LC50).

# annotated cases, reported Vero Cells, concentration that caused 50% cell death (LC50) shown
SEQ_STRING: LRKIWWWW [WW294]
OBSERVED_VALUE: >100 µM
--
SEQ_STRING: WWWLRKIW [WW291]
OBSERVED_VALUE: 100 µM
--
SEQ_STRING: KIWWWWLR [WW296]
OBSERVED_VALUE: >100 µM
--
SEQ_STRING: WWWWLRKI [WW298]
OBSERVED_VALUE: 100 µM
--
SEQ_STRING: WWLRKIWW [WW292]
OBSERVED_VALUE: >100 µM
--
SEQ_STRING: WLRKIWWW [WW293]
OBSERVED_VALUE: >100 µM

Reported Vero Cells, concentration that caused 50% cell death (LC50) for RKIWWWWL [WW295] : what is it? >100 µM

----------
Measured Chicken RBC, concentration that caused 50% red blood cell lysis (HC50) values are reported for all entries that follow.
test system: chicken red blood cells; experiment: Hemolytic assay; assay type: cell-based
No end group written: not given here.
Lab book: enter the figure in µM, no units written.

Check out these entries, answers already filled in.
SEQ_STRING: KIWWWWLR [WW296]
OBSERVED_VALUE: 50
--
SEQ_STRING: WWWLRKIW [WW291]
OBSERVED_VALUE: 50
--
SEQ_STRING: RKIWWWWL [WW295]
OBSERVED_VALUE: 100

// next item, Chicken RBC, concentration that caused 50% red blood cell lysis (HC50) requested
What value of Chicken RBC, concentration that caused 50% red blood cell lysis (HC50) has been reported for the following sequence? WWWWLRKI [WW298] 70

----------
System: human keratinocytes (HaCaT)
Experiment: MTS cytotoxicity assay
Assay type: cell-based
Details: serum free media, one hour treatment
Description: Peptides were assayed for potential in vitro toxicity against human keratinocytes (HaCaT) and THP-1 cells as previously described. THP-1 monocytes were differentiated into macrophages by adding 30 ng/mL of phorbol 12-myristate 13-acetate (PMA; Sigma-Aldrich) to RPMI 1640 supplemented with 10% fetal calf serum culture (FCS) medium for 16 h. […] Absorbance readings at 492 nm were taken using a ChroMate microplate reader (GMI, Ramsey, MN, USA).
No end group written: not given here.
REPORTED_METRIC: HaCaT, concentration that caused 50% cell death (LC50) (µM)
Quick reminder: number only, in µM, skip the unit.

Consider the worked cases shown below.
SEQ_STRING: WWWWLRKI [WW298]
OBSERVED_VALUE: 80
//
SEQ_STRING: IWWWWLRK [WW297]
OBSERVED_VALUE: 100

Turning to the following sequence.
So what does the record say about HaCaT, concentration that caused 50% cell death (LC50) for KIWWWWLR [WW296] ? 100

----------
Tested on: A. baumannii B28-16
Type: cell-based, Acinetobacter baumannii
Settings: B28-16
Experimental: The antimicrobial activity spectrum of the WW peptide series was performed on a panel of Gram-positive and -negative bacteria using the standard broth micro-dilution method with minor modifications as described. […] The antibacterial activity of peptides was evaluated using a standard broth microdilution protocol with minor modifications as previously described. […] Minimal bactericidal concentration (MBC) was determined by plating the clear wells at MIC or above. […]
No end group written: not given here.
Overview of reported Minimal Inhibitory Concentration (MIC), AB across a group of sequences:

Query: Minimal Inhibitory Concentration (MIC), AB; subject: WWWLRKIW [WW291] 6.25 µM

Look up Minimal Inhibitory Concentration (MIC), AB: WLRKIWWW [WW293] 12.5 µM

----------
system: E. coli ATCC 25922; format: cell-based, Escherichia coli; conditions: ATCC 25922
No end group written: not given here.
REPORTED_METRIC: MIC, TSB (µM)
Numeric answer only, unit µM assumed.

The examples below pair each entry with its known result.
SEQ_STRING: WWLRKIWW [WW292]
RESULT_UNITS: µM
MIC, TSB: 12.5
--
SEQ_STRING: RKIWWWWL [WW295]
RESULT_UNITS: µM
MIC, TSB: 3.1
--
SEQ_STRING: WLRKIWWW [WW293]
RESULT_UNITS: µM
MIC, TSB: 12.5
--
SEQ_STRING: LRKIWWWW [WW294]
RESULT_UNITS: µM
MIC, TSB: 12.5

Fill blank: measured MIC, TSB of the sequence WWWWLRKI [WW298] is ____. 12.5

----------
test system: PMA differentiated THP-1 cells; test: MTS cytotoxicity assay; assay type: cell-based; conditions: PMA differentiated THP-1, serum free media, one hour treatment
No end group written: not given here.
REPORTED_METRIC: THP-1, concentration that caused 50% cell death (LC50)

SEQ_STRING: LRKIWWWW [WW294]
TARGET_UNDER_TEST: PMA differentiated THP-1 cells
OBSERVED_VALUE: >100 µM
//
SEQ_STRING: WLRKIWWW [WW293]
TARGET_UNDER_TEST: PMA differentiated THP-1 cells
OBSERVED_VALUE: >100 µM

Proceeding to the next sequence to report its THP-1, concentration that caused 50% cell death (LC50).
Can you share its THP-1, concentration that caused 50% cell death (LC50)? I mean this sequence: WWLRKIWW [WW292] >100 µM
